# Substrate: BHET
# stated.conditions: 120 h
readout.name: plate clearing

- unnamed (protein) MKVNKAHSIAVGLLSLVAVAHTHAQTNPYAKGPDPTSAALEADGPFVVSTQNISGAGFGGATVYSPDTAGTYAVVAFCPGFTATRSSVASFGRRLATHGFVVATIDTNSTLDLPPSRGTQLLAALKTVSALSTGPAAGKIDASRKVVSGWSMGGGGTLYASASDETLKTAVGLAPYSAQKKKFSTSVPQLILGGEDDIVAPVSSHSLSFFNQLPNATPKLYAEIADADHYFPTDAESSQPASKLQIAWVKRFADNDTRYEQFLSTAGIQVDLTNGRLSDSRRESTTF: not clears the plate
- unnamed (protein) MKKNIFKKACLSALVIAFSLSAHSGGGGGDDGGSDQLPLPDSCNSNCGYEVGPNPTLSALEATQGPLSVSASTVSSSVDGFGGGTIYYPNNASQELATIAVAPGFTNTQSAIQWWGPLLASHGYVVITIDTNGRFDNPGSRSLQLDAALSYLISEGNRSSSDISGLVDENRLATMGFSMGGGGTLISASRNRLSAAVPMAPWNTGGNDFDAIGVPTLIFACEDDSTARINSHASPFYNSIPSSTDKAYMEINNGPHNCANGNNGNGNDALLSTYGVSWMKRFLDKDSRYDQFLCGPNHVANSKINEYRDTCNY: not clears the plate
